Experiment summary: Experimental LogD (partition coefficient)
Positions of bridges follow the written chain, without caps; N, C: chain ends. Non-standard residues stand in square brackets, D forms with d. Residues, ends and D or L forms follow the SMILES beside them. Lys(N3) = [N-]=[N+]=NCCCC[C@H](N)C(=O)O; R8 = C=CCCCCCC[C@@](C)(N)C(=O)O; Cba = N[C@@H](CC1CCC1)C(=O)O; S5 = C=CCCC[C@](C)(N)C(=O)O; βAla = NCCC(=O)O
Quantity name: Partition Coeff LogD

CC(=O)N[C@@H](CCCCN)C(=O)NCCCCCC(=O)N[C@H](C(=O)N[C@@H](CO)C(=O)N[C@@H](Cc1ccccc1)C(=O)N[C@]1(C)CCCCCCC=CCCC[C@@](C)(C(N)=O)NC(=O)[C@H](CC(C)C)NC(=O)[C@H](CC(C)C)NC(=O)[C@H](C)NC(=O)[C@H](Cc2c[nH]c3ccccc23)NC(=O)[C@H](Cc2ccc(O)cc2)NC(=O)[C@H](CCC(=O)O)NC1=O)[C@@H](C)O [MP-716] = Poorly Behaved
CC(=O)N[C@@H](CCCCN=[N+]=[N-])C(=O)NCCC(=O)N[C@@H](CC(C)C)C(=O)N[C@H](C(=O)N[C@@H](Cc1ccccc1)C(=O)N[C@]1(C)CCCCCCC=CCCC[C@@](C)(C(=O)N[C@@H](C)C(=O)N[C@@H](C)C(=O)N[C@@H](C)C(N)=O)NC(=O)[C@H](CC2CCC2)NC(=O)[C@H](CCC(N)=O)NC(=O)[C@H](C)NC(=O)[C@H](Cc2c[nH]c3ccccc23)NC(=O)[C@H](Cc2ccc(O)cc2)NC(=O)[C@H](C)NC1=O)[C@@H](C)O [MP-8965] (Ac-[Lys(N3)][βAla]LTF[R8]AYWAQ[Cba][S5]AAA-NH2; staple 6-13) = Poorly Behaved
